Assay: NCI Yeast Anticancer Drug Screen. Data for the rad50 strain (AID 155)
Conditions: S. cerevisiae rad50 strain growth inhibition; at 11.0 µM
About 79,000 compounds went through this panel and 15% of them were active in at least one assay; those are over-represented in the sample as a whole. Activity calls are given as the source filed them. No stated cut-off is given here; in the data, active means growth inhibition above about 70%; inactive means the rest.
Just give me one of these, please: True = active, False = inactive

IN: Per the assay record, what outcome was assigned to `CN(C)CCCn1c2c3ccccc3ccc2c2oc(=O)c3ccccc3c21` ?
OUT: True

IN: Follow-up item: `O=S(=O)(c1ccccc1)N1CN2CN(C1)CN(S(=O)(=O)c1ccccc1)C2`
OUT: False

IN: Follow-up item: `CCCCCCC=C(C(=O)OCC)C(=O)OCC`
OUT: False

IN: Follow-up item: `N#Cc1nc(Nc2ccc(Cl)cc2)sc1N`
OUT: False

IN: Follow-up item: `CCCCCCCCCCCCCCCCCCNC(=S)/N=C/c1c(O)c2ccccc2[nH]c1=O`
OUT: False

IN: Follow-up item: `CC(=O)CCC1=C(C)C(=O)C(=O)C(C)=C1O`
OUT: False

IN: Follow-up item: CC1CCC(C2=CSC3CCCCC3N2)CC1 (configuration not stated)
OUT: False

IN: Follow-up item: `CCCCOc1ccc2nc(C)cc(N=[N+]=[N-])c2c1`
OUT: False

IN: Follow-up item: `Cc1ccc(NC(Nc2ccc(C)cc2C)=C(C(Cl)=C(Cl)Cl)[N+](=O)[O-])c(C)c1`
OUT: True

IN: Follow-up item: `O=C(NCCNCCNC(=O)c1cc(-c2ccccc2)nc2ccccc12)c1cc(-c2ccccc2)nc2ccccc12`
OUT: False

IN: Follow-up item: `O=C(CCSC1=NCCCN1)c1ccc(F)cc1`
OUT: False

IN: Follow-up item: `Fc1cc(F)c(F)c(S)c1F`
OUT: False

IN: Follow-up item: `CCCCCCCCCCCCCCN`
OUT: False

IN: Follow-up item: `O=C1Oc2ccccc2C(=O)/C1=C/N1C(=O)N/C(=C\c2ccccc2Br)C1=O`
OUT: False

IN: Follow-up item: `CC(C)OP(=O)(OC(C)C)C(=NCCO)NNc1ccc([N+](=O)[O-])cc1`
OUT: False

IN: Follow-up item: `CCC[CH2][Sn]([CH2]CCC)([CH2]CCC)/[C](=C/[Si](C)(C)c1ccccc1)c1ccc2c(c1)OCO2`
OUT: True

IN: Follow-up item: `CCCCCCCC/C=C\CCCCCCCCN`
OUT: False

IN: Follow-up item: COc1ccc2c3c1OC(C)C31CC(=O)CCC1CC2 (configuration not stated)
OUT: False

IN: Follow-up item: `NC(N)=NS(=O)(=O)c1ccc(Nc2c3ccccc3nc3c(C(=O)NC(CO)(CO)CO)cccc23)cc1`
OUT: False

IN: Follow-up item: `CC1=COC2=C(C)C(=O)C(=O)c3c(C)ccc1c32`
OUT: False

IN: Follow-up item: `O=[N+]([O-])c1ccc(S(=O)(=O)Cc2ccccc2)c([N+](=O)[O-])c1`
OUT: False

IN: Follow-up item: `O=C(NO)c1coc2ccccc2c1=O`
OUT: False

IN: Follow-up item: `CCCCS/C(=C(/C#N)C(N)=O)c1cc2c([nH]1)CCCC2`
OUT: False

IN: Follow-up item: `O=C(O)CNC(c1ccccc1)(c1ccccc1)c1ccccc1`
OUT: False

IN: Follow-up item: `NC(=O)NC1C(c2ccccc2)=C1c1ccccc1`
OUT: True

IN: Follow-up item: `Cc1cc(Cl)ccc1NC(=O)/C(Cl)=C(/Cl)C(=O)O`
OUT: False

IN: Follow-up item: CCCCCCCSCC1C(=O)C23C(O)C1CCC2C12COC3(O)C(O)C1C(C)(C)CCC2O (configuration not stated)
OUT: False
